Where these numbers come from: patent US20060122279A1

# Assay type: binding, E. coli 0111:B4
# MEASUREMENT CONDITIONS: E. coli 0111:B4 LPS; Tables 1-3; read-out: ED50 (half-maximal effective displacement of BC probe from LPS)
Attribute: EC50
Reply with the number and its unit after it.

Please review the following examples before continuing.
CCCCCCCCCCCCCCCCCC(=O)NCCCCC(N)C(=O)NCCCNCCCCNCCCN [Compound 8, D-Lys-ε-(stearoyl)-N^1-spermine]
8.8 µM
CC(C)(C)CCNCCCCC(N)C(=O)NCCCNCCCCNCCCN (stereo not drawn) [Compound 34]
10.9 µM

## Task Fill in: EC50 of COCCOCC(=O)NCCCCC(N)C(=O)NCCCNCCCCNCCCN (stereo not drawn) is ___
## Result 495 µM

* * *

Reported pEC50 values for the following compounds.
# Type: binding, E. coli 0111:B4
# MEASUREMENT CONDITIONS: E. coli 0111:B4 LPS; Tables 1-3; read-out: ED50 (half-maximal effective displacement of BC probe from LPS)
Scale: negative log10 of molar concentration, which is what pEC50 denotes.

These solved cases illustrate the format of a correct answer.
CCCCCCCNCCCCC(N)C(=O)NCCCNCCCCNCCCN (stereo not drawn) [Compound 28]
5.41
CC(C)C(=O)NCCCCC(N)C(=O)NCCCNCCCCNCCCN (stereo not drawn)
3.52

Read the next record carefully.
## Task Which measured pEC50 value corresponds to CCCCCCNCCCCC(N)C(=O)NCCCNCCCCNCCCN (stereo not drawn) ?
## Result 5.15
